Catalogue of Kd readings, one per entry.
target: hRSV FTM- NN protein (membrane anchorless form of the Long fusion protein, 70 kDa) (hRSV strain Long); test: SPR (Biacore T100), FTM- NN amine-coupled, 1:1 Langmuir fit
Field: numeric (nM). Do not append units.

binder	measurement_unit	quantitative_result
Nanobody 1E4 (VHH) VHH: EVQLVESGGGLVQAGGSLRLSCEASGRTFSSYGMGWFRQAPGKEREFVAAVSRLSGPRTVYADSVKGRFTISRDNAENTVYLQMNSLKPEDTAVYTCAAELTNRNPGAYYYTWAYDYWGQGTQVTVSS	nM	1.6
Nanobody 7B2 (VHH) VHH: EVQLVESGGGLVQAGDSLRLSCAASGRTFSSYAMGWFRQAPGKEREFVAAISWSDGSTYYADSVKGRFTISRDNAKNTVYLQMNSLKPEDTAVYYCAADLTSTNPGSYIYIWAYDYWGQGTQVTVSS	nM	1.1

API: the following record is the query input.
Task: May I ask what Kd has been recorded for Nanobody NC23 (VHH) VHH: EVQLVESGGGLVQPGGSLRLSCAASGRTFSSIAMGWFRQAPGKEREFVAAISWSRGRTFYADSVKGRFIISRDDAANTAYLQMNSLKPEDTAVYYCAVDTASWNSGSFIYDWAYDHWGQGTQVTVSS ?
Result: 0.92
